# TEST_DESCRIPTION: Pharmacokinetics after i.v. and p.o. administration to rats
# Format: in vivo, Sprague–Dawley rats
# CONDITION_SET: male, Sprague-Dawley, rat, plasma, po, 10 mg/kg
MEASUREMENT_LABEL: AUC (ng·h/mL)

COMPOUND | MEASUREMENT_LABEL | UOM | RESULT_VALUE
Cc1ccc(F)c2[nH]c3c(c12)CN(C(=O)c1cc(C(F)(F)F)[nH]n1)[C@H](C)C3 [Compound 39] | AUC | ng·h/mL | 2330

---

# TEST_TARGET: F508del-CFTR (Homo sapiens, UniProt P13569, DEL508-508)
# Sequence (P13569 with tags, fused parts or gaps DEL508-508): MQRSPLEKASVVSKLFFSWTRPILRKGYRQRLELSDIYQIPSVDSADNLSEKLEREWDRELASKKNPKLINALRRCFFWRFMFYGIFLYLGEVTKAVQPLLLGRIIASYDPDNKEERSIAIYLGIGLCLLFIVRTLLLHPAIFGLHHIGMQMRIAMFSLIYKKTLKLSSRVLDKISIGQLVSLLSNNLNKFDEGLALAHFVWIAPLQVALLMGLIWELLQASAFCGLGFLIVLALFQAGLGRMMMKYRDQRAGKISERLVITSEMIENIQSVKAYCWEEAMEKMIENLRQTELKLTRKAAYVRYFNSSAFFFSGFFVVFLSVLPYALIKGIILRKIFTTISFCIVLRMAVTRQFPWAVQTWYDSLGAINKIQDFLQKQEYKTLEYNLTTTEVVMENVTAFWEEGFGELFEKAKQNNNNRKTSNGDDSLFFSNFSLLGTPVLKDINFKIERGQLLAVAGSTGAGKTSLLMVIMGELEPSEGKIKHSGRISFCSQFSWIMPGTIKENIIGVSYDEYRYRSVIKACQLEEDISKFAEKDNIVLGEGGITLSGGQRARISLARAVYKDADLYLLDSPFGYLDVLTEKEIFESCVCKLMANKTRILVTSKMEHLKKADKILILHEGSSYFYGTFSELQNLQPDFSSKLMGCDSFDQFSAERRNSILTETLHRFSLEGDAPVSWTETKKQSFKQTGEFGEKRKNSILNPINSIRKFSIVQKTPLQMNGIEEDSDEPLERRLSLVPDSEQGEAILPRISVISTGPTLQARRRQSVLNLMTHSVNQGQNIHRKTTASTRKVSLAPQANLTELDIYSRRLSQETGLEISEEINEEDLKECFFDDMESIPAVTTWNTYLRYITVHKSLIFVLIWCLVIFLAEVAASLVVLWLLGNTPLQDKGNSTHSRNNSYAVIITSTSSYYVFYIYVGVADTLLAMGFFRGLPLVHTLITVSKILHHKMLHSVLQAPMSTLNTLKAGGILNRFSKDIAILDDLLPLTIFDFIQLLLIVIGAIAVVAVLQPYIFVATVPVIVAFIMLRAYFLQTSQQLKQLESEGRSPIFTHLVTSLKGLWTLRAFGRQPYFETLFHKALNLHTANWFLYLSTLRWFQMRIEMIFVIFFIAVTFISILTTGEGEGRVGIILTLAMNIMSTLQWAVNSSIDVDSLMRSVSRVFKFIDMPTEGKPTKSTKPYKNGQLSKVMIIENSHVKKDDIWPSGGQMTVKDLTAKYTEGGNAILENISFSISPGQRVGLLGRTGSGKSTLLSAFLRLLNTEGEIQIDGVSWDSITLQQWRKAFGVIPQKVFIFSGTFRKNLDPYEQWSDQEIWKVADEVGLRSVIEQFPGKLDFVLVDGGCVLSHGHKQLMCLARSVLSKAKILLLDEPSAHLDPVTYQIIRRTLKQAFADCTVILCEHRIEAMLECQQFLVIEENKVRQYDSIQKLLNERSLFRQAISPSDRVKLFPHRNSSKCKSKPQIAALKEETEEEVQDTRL
# TEST_DESCRIPTION: HS-YFP-based assay for CFTR activity on F508del-CFTR FRT cells rescued at 32 °C for 24 h
# Assay type: cell-based
# Set-up: expressed in transfected cells; key: fold increase in F508del-CFTR rescue relative to hit 3 (normalized)
# CONDITION_SET: supplementary csv; same data as Tables 1–3
We label by threshold. Values of Emax strictly beneath 0.9 are Fulfilled. Values of 0.9 and up are Not fulfilled.

MOLECULE | TEST_TARGET | ASSIGNED_LABEL
Cc1ccc(F)c2[nH]c3c(c12)C(C)N(C(=O)c1cc(C(F)(F)F)[nH]n1)CC3 (single isomer, unassigned) [Compound 41] | F508del-CFTR (Homo sapiens, UniProt P13569, DEL508-508) | Not fulfilled
O=C(c1cc(C(F)(F)F)[nH]n1)N1CCc2[nH]c3ccccc3c2C1 | F508del-CFTR (Homo sapiens, UniProt P13569, DEL508-508) | Not fulfilled
COc1ccc2[nH]c3c(c2c1)CN(C(=O)c1ccc(Br)o1)CC3 | F508del-CFTR (Homo sapiens, UniProt P13569, DEL508-508) | Not fulfilled
O=C(c1cc(C(F)(F)F)[nH]n1)N1CCc2[nH]c3c(F)cccc3c2C1 | F508del-CFTR (Homo sapiens, UniProt P13569, DEL508-508) | Not fulfilled
Cc1ccc(F)c2[nH]c3c(c12)C1CCC(C3)N1C(=O)c1cc(C(F)(F)F)[nH]n1 (single isomer, unassigned) [Compound 37] | F508del-CFTR (Homo sapiens, UniProt P13569, DEL508-508) | Not fulfilled
COc1ccc2[nH]c3c(c2c1)CN(C(=O)c1cc[nH]n1)CC3 | F508del-CFTR (Homo sapiens, UniProt P13569, DEL508-508) | Fulfilled
Cc1ccc(F)c2[nH]c3c(c12)C1CCC(C3)N1C(=O)c1cc(C(F)(F)F)[nH]n1 (racemic) [Compound 35] | F508del-CFTR (Homo sapiens, UniProt P13569, DEL508-508) | Fulfilled
